molecular target: DPPI (Homo sapiens, UniProt P53634); test: Cell based DPPI inhibition assay (neutrophil elastase activity in U937 cells); design: endogenous in cells; host or cells: U937 cells; conditions: 24 hours, elastase activity readout
Sequence (P53634 231-394 limits assumed): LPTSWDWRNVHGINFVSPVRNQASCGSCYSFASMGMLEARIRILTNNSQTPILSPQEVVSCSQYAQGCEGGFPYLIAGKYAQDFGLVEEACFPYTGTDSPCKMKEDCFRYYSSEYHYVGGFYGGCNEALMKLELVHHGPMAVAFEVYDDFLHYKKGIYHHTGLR
Sequence (P53634 25-134 limits assumed): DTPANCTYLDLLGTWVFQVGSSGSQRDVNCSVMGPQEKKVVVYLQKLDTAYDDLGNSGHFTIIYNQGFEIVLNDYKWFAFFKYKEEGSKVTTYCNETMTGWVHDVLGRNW
Sequence (P53634 395-463 limits assumed): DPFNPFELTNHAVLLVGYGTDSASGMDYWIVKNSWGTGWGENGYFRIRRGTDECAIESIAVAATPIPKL
measurement type: IC50

query: Give the reported IC50 for this compound. CN1CCN(S(=O)(=O)c2ccc(-c3ccc(C[C@@H](C#N)NC(=O)C4(N)CCOCC4)cc3)cc2)CC1 [PZ1032, reference compound]
result: ~0.011 µM

###

For each of the compounds below, state its half-life at 5 μM.
experiment: Test for metabolic stability, Human Liver Microsomes; type: in vitro ADME; settings: human, liver microsomes, pH 7.4, human liver microsomes 1.0 mg/mL, 5 μM test compound, NADPH; read-out: Metabolic stability human microsomes t½

query: Give the reported half-life at 5 μM for this compound. CN1CCN(S(=O)(=O)c2ccc(-c3ccc(C[C@@H](C#N)NC(=O)C4(N)CCOCC4)cc3)cc2)CC1 [PZ1032, reference compound]
result: 50 min

query: Give the reported half-life at 5 μM for this compound. "CN1CCN(Cc2ccc(-c3ccc(C[C@@H](C#N)NC(=O)C4(N)CCOCC4)cc3)cc2)CC1"
result: > 300 min

query: Give the reported half-life at 5 μM for this compound. CN1CCN(Cc2ccc(-c3ccc(C[C@@H](C#N)NC(=O)C4(N)CCCCC4)cc3)cc2)CC1 [PZ1024, reference compound]
result: ~55 min

###

Molecular target: DPPI (Homo sapiens, UniProt P53634)
Experiment: Human DPPI inhibition assay (Gly-Phe-paranitroanilide substrate)
Type: biochemical
Set-up: purchased UNIZYME Laboratories A/S
Details: Table 1 potency; assay not given
Method: Using this assay, the IC50 value of the compound of the invention may be determined using Gly-Phe-paranitroanilide as a DPPI specific substrate. […] Assay conditions: The assay was performed in 96-well plates. […] The absorption was measured at 405 nm at 37° C. for every 90 seconds for 12 minutes or every 20 seconds for 4 minutes. […] IC50 was determined using a 4-parameter logistic equation in a non-linear curve fitting routine.
measurement type: IC50

query: Give the reported IC50 for this compound. "CN1CCN(Cc2ccc(-c3ccc(C[C@@H](C#N)NC(=O)C4(N)CCOCC4)cc3)cc2)CC1"
result: 34 nM

query: Give the reported IC50 for this compound. CN1CCN(Cc2ccc(-c3ccc(C[C@@H](C#N)NC(=O)C4(N)CCCCC4)cc3)cc2)CC1 [PZ1024, reference compound]
result: 37 nM

###

measurement type: IC50 (µM)
# unit: µM | format: bare number

query: Lab note: record IC50 of CN1CCN(Cc2ccc(-c3ccc(C[C@@H](C#N)NC(=O)C4(N)CCCCC4)cc3)cc2)CC1 [PZ1024, reference compound] tested on CYP2D6 (Homo sapiens, UniProt P10635).
Sequence (P10635 whole entry): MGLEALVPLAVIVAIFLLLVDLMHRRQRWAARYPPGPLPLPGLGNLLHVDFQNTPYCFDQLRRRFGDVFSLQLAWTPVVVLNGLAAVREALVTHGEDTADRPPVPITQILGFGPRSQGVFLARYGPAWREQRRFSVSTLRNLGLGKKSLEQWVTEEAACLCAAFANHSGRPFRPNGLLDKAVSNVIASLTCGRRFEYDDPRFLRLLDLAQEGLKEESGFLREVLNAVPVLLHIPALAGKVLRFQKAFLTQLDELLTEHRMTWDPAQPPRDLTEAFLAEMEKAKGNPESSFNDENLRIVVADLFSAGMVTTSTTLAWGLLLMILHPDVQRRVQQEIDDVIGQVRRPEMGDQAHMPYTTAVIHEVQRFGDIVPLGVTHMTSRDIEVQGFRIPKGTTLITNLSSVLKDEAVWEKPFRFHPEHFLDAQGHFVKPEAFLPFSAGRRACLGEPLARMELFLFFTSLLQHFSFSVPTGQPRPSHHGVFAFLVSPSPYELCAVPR
result: 18

###

pIC50: −log10 of the molar value.
For each of the molecules below, state its pIC50.

query: Lab note: record pIC50 of "CN1CCN(Cc2ccc(-c3ccc(C[C@@H](C#N)NC(=O)C4(N)CCOCC4)cc3)cc2)CC1" tested on CYP2C9 (Homo sapiens, UniProt P11712).
Sequence (P11712 whole entry): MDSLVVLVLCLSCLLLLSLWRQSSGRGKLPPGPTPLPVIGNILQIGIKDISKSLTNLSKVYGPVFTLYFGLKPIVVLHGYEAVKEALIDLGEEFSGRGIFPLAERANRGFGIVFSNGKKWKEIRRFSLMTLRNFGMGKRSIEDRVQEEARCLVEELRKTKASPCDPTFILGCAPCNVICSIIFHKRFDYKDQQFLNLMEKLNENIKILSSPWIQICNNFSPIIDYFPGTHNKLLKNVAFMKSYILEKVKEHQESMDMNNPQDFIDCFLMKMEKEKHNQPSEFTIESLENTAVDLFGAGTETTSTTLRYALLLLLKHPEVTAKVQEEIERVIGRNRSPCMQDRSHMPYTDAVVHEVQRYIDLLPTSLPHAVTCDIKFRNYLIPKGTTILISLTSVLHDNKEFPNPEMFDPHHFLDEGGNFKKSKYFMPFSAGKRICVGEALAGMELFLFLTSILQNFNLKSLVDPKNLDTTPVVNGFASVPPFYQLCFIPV
result: < 4.00

query: Lab note: record pIC50 of CN1CCN(Cc2ccc(-c3ccc(C[C@@H](C#N)NC(=O)C4(N)CCCCC4)cc3)cc2)CC1 [PZ1024, reference compound] tested on CYP2C9 (Homo sapiens, UniProt P11712).
result: < 4.00
